Reference for the values: paper PMC5540273

System: CLK3
Conditions: concentration: 1 μM, replicates: in singlicate; n = 1;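 also: KINOMEscan kinase panel screen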
Please provide measured %Inh for the entries that follow.
Your answer should be a plain number; it is taken to be in %.

Name the reported %Inh value associated with the compound Cc1ccc(Nc2ccnc(Nc3ccc(C)c(F)c3)n2)cc1O.Cl 3

Request the reported %Inh associated with O=C(O)C(F)(F)F.O=c1[nH]ccc2nc(N[C@@H]3CCNC3)nc(Nc3ccc4c(c3)S(=O)(=O)CC4)c12 17

State the recorded %Inh for this entry: Nc1cccc(-c2ccc3c(N)n[nH]c3c2)c1 0

For the compound CCNC(=O)/C=C/c1n[nH]c2cc(Sc3ccccc3C(=O)NC)ccc12 , what %Inh is on record? 14

I'd like to know its %Inh. The compound in question is COc1ccc(C2=C(Nc3cccc(O)c3)C(=O)NC2=O)cc1 22

Could you tell me which %Inh is on file for CC(C)c1nc(-c2cccc(NS(=O)(=O)c3c(F)cccc3F)c2)c(-c2ccnc(Nc3ccc(N4CCOCC4)nc3)n2)s1.Cl ? 0

Can you share its %Inh? I mean this compound: Cc1cc(-c2c(-c3ccc(F)cc3)ncn2CCCN2CCOCC2)nc(N)n1 0

Need %Inh, item COc1ccc(C)c(Nc2ccnc(Nc3ccc(-c4cnc[nH]4)cc3)n2)c1.Cl 7

Entry CN(c1ccc(NC(=O)Nc2cccc(Cl)c2)cc1)c1ccnc(N)n1.Cl : reported %Inh = ? 0

So what does the record say about %Inh for CN(C)c1ncnc2nc[nH]c12 ? 0

Report %Inh for O=C(O)C(F)(F)F.O=c1[nH]ccc2nc(N[C@@H]3CCNC3)nc(Nc3cc(Cl)cc(Cl)c3)c12 please. 34

So what's the measured %Inh for this one? CN(c1ccc(NC(=O)N2CCN(CCCN3CCOCC3)CC2)cc1)c1ccnc(Nc2ccc(CS(C)(=O)=O)cc2)n1.Cl 0

What value of %Inh has been recorded for this entry: O=C(Nc1c(F)cccc1F)c1cc(C(=O)c2ccccc2F)c[nH]1 2

What %Inh value was documented for this compound, CN1CCN(Cc2ccc(NC(=O)Nc3ccc(N(C)c4ccnc(Nc5ccc(CS(C)(=O)=O)cc5)n4)cc3)cc2)CC1.Cl ? 31

Returns the measured %Inh for the input compound. Input: Nc1ncc(-c2cn[nH]c2)c2scc(-c3ccc4c(c3)CCN4C(=O)Cc3ccccc3)c12 0

###

Test system: TGFBR1
Conditions: concentration: 1 μM, replicates: in singlicate; n = 1
experimental-readout: %Inh (%)
# number only, unit % dropped from output

So what does the record say about %Inh for N#Cc1cnc2cc(-c3cnc(CNCCN4CCOCC4)s3)ccc2c1Nc1ccc(Oc2ccccc2)cc1 ? 6

Name the recorded %Inh for Cn1cc(-c2cnc(N)c3c(-c4ccc5c(c4)CCN5C(=O)Cc4ccccc4)csc23)cn1 . 6

Look up %Inh for this molecule: Nc1ncc(-c2cn[nH]c2)c2scc(-c3ccc4c(c3)CCN4C(=O)Cc3ccccc3)c12 0

Entry COc1cccc(C2=C(Nc3cccc(O)c3)C(=O)NC2=O)c1 : reported %Inh = ? 19

# query: %Inh of entry Cc1cccc(Nc2nc(NCCN)ncc2C(N)=O)c1 0

# input molecule: Cc1ccc(NC(=O)c2ccnc(N3CCCCC3)c2)cc1-c1ccc(C(=O)NCC2CC2)cc1 ; wanted: its %Inh 6
